MEASUREMENT TARGET: aromatase (Rattus norvegicus)
Construct: ovarian microsomes are obtained from rats treated with pregnant mares serum gonadotropin
Sequence (P22443 whole entry): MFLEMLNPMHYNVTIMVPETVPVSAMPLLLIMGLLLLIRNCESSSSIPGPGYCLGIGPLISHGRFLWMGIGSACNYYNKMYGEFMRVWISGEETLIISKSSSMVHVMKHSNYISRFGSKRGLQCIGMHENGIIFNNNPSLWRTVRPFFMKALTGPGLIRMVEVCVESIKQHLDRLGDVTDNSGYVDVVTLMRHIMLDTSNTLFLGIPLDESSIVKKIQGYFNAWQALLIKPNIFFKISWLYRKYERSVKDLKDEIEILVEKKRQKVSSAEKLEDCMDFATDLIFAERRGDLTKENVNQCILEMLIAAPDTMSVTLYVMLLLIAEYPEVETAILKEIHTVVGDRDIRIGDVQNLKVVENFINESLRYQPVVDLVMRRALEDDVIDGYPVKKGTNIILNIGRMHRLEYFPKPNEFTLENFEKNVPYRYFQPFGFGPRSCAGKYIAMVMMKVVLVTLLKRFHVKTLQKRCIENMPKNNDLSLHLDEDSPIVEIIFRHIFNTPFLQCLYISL
TEST SUMMARY: Aromatase inhibition in the rat ovarian microsome assay
CONDITIONS USED: rat ovarian microsomes; substrate (androstenedione) concentration 0.1 μM
pEC50: −log10 of the molar value.

{"columns": ["SMILES STRING", "pEC50"],
 "data": [
  ["c1ccc2c(c1)CCc1ccccc1C2n1ccnc1", 5.70]
]}
